experimental_target: Tumor necrosis factor receptor superfamily member 10B (Homo sapiens) (UniProt O14763)
Sequence (O14763 whole entry, looked up): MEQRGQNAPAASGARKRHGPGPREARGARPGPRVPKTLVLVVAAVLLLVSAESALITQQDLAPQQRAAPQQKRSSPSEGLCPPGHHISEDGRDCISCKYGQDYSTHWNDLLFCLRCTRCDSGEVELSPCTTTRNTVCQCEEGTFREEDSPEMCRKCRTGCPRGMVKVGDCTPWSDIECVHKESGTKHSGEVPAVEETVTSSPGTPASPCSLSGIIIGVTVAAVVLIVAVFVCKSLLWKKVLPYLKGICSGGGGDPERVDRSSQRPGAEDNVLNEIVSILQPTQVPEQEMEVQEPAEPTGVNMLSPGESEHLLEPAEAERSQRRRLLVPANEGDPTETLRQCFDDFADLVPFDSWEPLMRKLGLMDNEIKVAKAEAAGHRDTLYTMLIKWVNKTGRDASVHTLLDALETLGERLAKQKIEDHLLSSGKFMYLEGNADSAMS
assay_method_text: caspase-8 TRAIL sensitization, hit retest, confirmation, cell-based, NB7+caspase-8, with/without TRAIL, luminescence panel (AID 651596)
conditions: NB7 neuroblastoma + caspase-8, TRAIL sensitization, luminescence viability, with TRAIL, mean of runs, at 10 µM, stronger effect = higher value
assay_metric: activity (%)

compound	experimental_target	assay_metric	test_result
O=C(Nc1nc2ccccc2s1)c1ccc(OCC2CCCO2)cc1 (centres undefined)	Tumor necrosis factor receptor superfamily member 10B (Homo sapiens) (UniProt O14763)	activity	73.5
CS(=O)(=O)Nc1cccc(NC(=O)C2Cc3c(-c4ccco4)ccnc3O2)c1 (centres undefined)	Tumor necrosis factor receptor superfamily member 10B (Homo sapiens) (UniProt O14763)	activity	35.7
O=C(/C=C/Nc1ccccc1F)c1ccc(Br)cc1	Tumor necrosis factor receptor superfamily member 10B (Homo sapiens) (UniProt O14763)	activity	62.2
C#Cc1ccc([C@@H]2C=C(C(=O)Nc3ccccc3)O[C@H](OCC)[C@H]2CCCO)cc1	Tumor necrosis factor receptor superfamily member 10B (Homo sapiens) (UniProt O14763)	activity	90.8
CCn1cc(Cl)c(C(=O)Nc2ccc3c(c2)OCCO3)n1	Tumor necrosis factor receptor superfamily member 10B (Homo sapiens) (UniProt O14763)	activity	39.5
COC(=O)c1c(NC(=O)COc2ccc(Cl)cc2)sc2c1CC(C)(C)NC2(C)C	Tumor necrosis factor receptor superfamily member 10B (Homo sapiens) (UniProt O14763)	activity	81.2
Cc1ccccc1C(=O)Nc1nnc(SCC(=O)NCc2ccco2)s1	Tumor necrosis factor receptor superfamily member 10B (Homo sapiens) (UniProt O14763)	activity	61.1
Cc1nc2cc(NC(=O)c3ccco3)ccc2n1C	Tumor necrosis factor receptor superfamily member 10B (Homo sapiens) (UniProt O14763)	activity	47.6
c1ccc2nc(-c3nc4ccccc4o3)ccc2c1	Tumor necrosis factor receptor superfamily member 10B (Homo sapiens) (UniProt O14763)	activity	79.6
Cc1ccc(-c2nnc(NC(=O)c3ccco3)o2)c(C)c1	Tumor necrosis factor receptor superfamily member 10B (Homo sapiens) (UniProt O14763)	activity	70.7
O=C(CC1SC(=O)N(Cc2cccc3ccccc23)C1=O)Nc1nccs1 (centres undefined)	Tumor necrosis factor receptor superfamily member 10B (Homo sapiens) (UniProt O14763)	activity	33
Cc1ccc2sc(NC(=O)CSc3nc(C)cc(C)c3C#N)nc2c1	Tumor necrosis factor receptor superfamily member 10B (Homo sapiens) (UniProt O14763)	activity	71.5
Cn1c(-c2ccccc2)c(C(=O)CCl)c2ccccc21	Tumor necrosis factor receptor superfamily member 10B (Homo sapiens) (UniProt O14763)	activity	99.2
CN(C)c1cccc(C(=O)N/N=C/c2ccccc2F)c1	Tumor necrosis factor receptor superfamily member 10B (Homo sapiens) (UniProt O14763)	activity	82.8
COC(=O)c1sc(NC(=S)NC(=O)c2ccccc2C)nc1C	Tumor necrosis factor receptor superfamily member 10B (Homo sapiens) (UniProt O14763)	activity	58
COc1cccc(C(=O)Nc2ccc(C3CC3(Cl)Cl)cc2)c1 (centres undefined)	Tumor necrosis factor receptor superfamily member 10B (Homo sapiens) (UniProt O14763)	activity	47
CCOc1ccccc1NC(=O)c1nc(S(=O)(=O)Cc2ccccc2)ncc1Cl	Tumor necrosis factor receptor superfamily member 10B (Homo sapiens) (UniProt O14763)	activity	79.4
O=C(N/N=C/c1cccs1)c1ccc2c(c1)OCO2	Tumor necrosis factor receptor superfamily member 10B (Homo sapiens) (UniProt O14763)	activity	71.7
Cc1cc(=O)[nH]c2nnc(-c3ccc(Cl)cc3)n12	Tumor necrosis factor receptor superfamily member 10B (Homo sapiens) (UniProt O14763)	activity	82.2
N#CC1=C(N)N2C(=C(C#N)C1c1cccc(Br)c1)Nc1ccccc12 (centres undefined)	Tumor necrosis factor receptor superfamily member 10B (Homo sapiens) (UniProt O14763)	activity	55.6
O=c1cc(-c2ccccc2)oc2ccc3ccccc3c12	Tumor necrosis factor receptor superfamily member 10B (Homo sapiens) (UniProt O14763)	activity	92.2
Cc1cccc(/C(N)=N/OC(=O)c2ccccc2Cl)c1	Tumor necrosis factor receptor superfamily member 10B (Homo sapiens) (UniProt O14763)	activity	77.6
CC(C)CC(NC(=O)c1ccc(Cl)cc1)C(=O)OCC(=O)c1ccc2c(c1)NC(=O)CO2 (centres undefined)	Tumor necrosis factor receptor superfamily member 10B (Homo sapiens) (UniProt O14763)	activity	71.7
O=C(Oc1c(CN2CCOCC2)cc(Cl)c2cccnc12)c1ccc(F)cc1	Tumor necrosis factor receptor superfamily member 10B (Homo sapiens) (UniProt O14763)	activity	53.5

This collection of values is drawn from PubChem BioAssay.
